Origin of measurements: patent US5698411A

Task for the reader: assign each of the following compounds its reported NORMAL LEUKOCYTE ENZYME ACTIVITY MONOS Mean.
# Test system: monocytes
# PROTOCOL DETAILS: enzyme activity with fluorogenic substrate, normal monocytes (Table 3A)
# Format: cell-based, human
Numbered stars: 1 amine (or outer) side, 2 acyl side, 3 side chain; on linkers, the order of the positions; unused ones are H or OH. Bridge positions count the residues as written; N and C are the ends. Peptide text beside a SMILES is read from it. I, II: the chains in the order shown. Rhodamine110 = O=C1OC2(c3ccc(N[*:1])cc3Oc3cc(N[*:2])ccc32)c2ccccc21

Report NORMAL LEUKOCYTE ENZYME ACTIVITY MONOS Mean for each item below.
1. CC(=O)Oc1ccc2c(c1)Oc1cc(OC(C)=O)ccc1C21OC(=O)c2ccccc21 [FDA, fluorescein diacetate, reference compound]
2. C[C@@H](O)[C@H](NC(=O)OCc1ccccc1)C(=O)N1CCC[C@H]1C(=O)Nc1ccc2c(c1)Oc1cc(NC(=O)[C@@H]3CCCN3C(=O)[C@@H](NC(=O)OCc3ccccc3)[C@@H](C)O)ccc1C21OC(=O)c2ccccc21 [Z-TP 8.7-M]
3. N=C(N)NCCC[C@H](N)C(=O)NCC(=O)N[C@@H](CCC(=O)O)C(=O)N[C@@H](CO)C(=O)Nc1ccc2c(c1)Oc1cc(NC(=O)[C@H](CO)NC(=O)[C@H](CCC(=O)O)NC(=O)CNC(=O)[C@@H](N)CCCNC(=N)N)ccc1C21OC(=O)c2ccccc21 (stereo partly drawn) [RGES, (Arg-Gly-Glu-Ser)2 Rho 110] (I: H-RGES / II: H-RGES; linker I:C-II:C via Rhodamine110)
4. O=C(NCC(=O)N1CCC[C@H]1C(=O)Nc1ccc2c(c1)Oc1cc(NC(=O)[C@@H]3CCCN3C(=O)CNC(=O)OCc3ccccc3)ccc1C21OC(=O)c2ccccc21)OCc1ccccc1 [Z-GP-M]

Response line:
1: 66.25; 2: 71.45; 3: 8.37; 4: 119.81
